Values compiled from patent US20180364250A1.

- Assay System: Ubiquitin (free, untagged) (UniProt P0CG48 1-76)
- Method Description: competition
Parameter Measured: pKi
As a rule, pKi stands for the negative log10 of the concentration, concentration in M.

tSR chimeric polypeptide sensor (designed binder) MPSSHHHHHHSSGLVPRGSHMTEEEQIAYAMQMSLREAGGGSDLLCKKGCGYYGNPAWQGFCSKCWREEAHKCAAERAAAE has a reported pKi of 5.37
